src = a melting point compilation (Tetko et al.; mined from patent text by program, amines drawn as free bases though some values may be those of a salt)

READOUT_NAME: melting point

COMPOUND | melting point
N#CCCC=NNc1ccc(CS(N)(=O)=O)cc1 | 175 to 176 °C
COc1ccc(C(=O)NCCCCCCCNC(=O)c2ccc(OC)cc2)cc1 | 157 to 159 °C
CC(C)CCNC(=S)c1ccc2c(c1)N(C(C)CN1CCC[C@@H]1CO)c1ccccc1S2 (stereo not given in full) | 140 °C

# melting point lookup, item "CCNc1nc(-c2ccc(F)cc2)c(-c2ccc(S(C)(=O)=O)cc2)s1"
218 to 219 °C

Further, for "Nc1ccccc1NC(=O)Nc1ccc(-c2ccc(C(=O)N3CCN4CCC3CC4)o2)cc1" ?
174 °C

Query "O=c1c2ccccc2cc(N2CCCCC2)c2ccccc12" next
103 to 105 °C

How about "CCCCn1c(C)c(C(=O)Nc2c(CC)cccc2CC)c(=O)c(Br)c1CC" ?
132 to 134 °C
